- experimental_target: hemoglobin (Homo sapiens, UniProt P68871+P69905)
- Construct: The whole blood samples were collected in heparinized tubes from healthy volunteers; from tissue; host or cells: human whole blood (heparinized) from healthy volunteers
- Sequence (P69905 2-142 limits assumed): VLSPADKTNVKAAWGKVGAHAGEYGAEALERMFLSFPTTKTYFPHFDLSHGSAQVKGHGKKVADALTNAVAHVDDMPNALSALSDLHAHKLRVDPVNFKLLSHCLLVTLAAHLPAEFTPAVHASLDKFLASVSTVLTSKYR
- Sequence (P68871 2-147 limits assumed): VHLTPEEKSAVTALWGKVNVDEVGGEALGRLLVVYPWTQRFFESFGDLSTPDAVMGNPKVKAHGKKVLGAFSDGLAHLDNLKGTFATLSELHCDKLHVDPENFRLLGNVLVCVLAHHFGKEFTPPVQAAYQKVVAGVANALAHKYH
- test_protocol: In vitro whole blood studies (multi-point tonometry and blood gas analysis)
- Assay type: cell-based
- stated_conditions: Table III
Each record is given yes (1) if its reported Whole Blood Δp50 mm Hg is strictly below 20 mm Hg. Records at or above 20 mm Hg are given no (0).

Worked examples, 3 molecules total:
> print(dat)
                                   molecule                       experimental.target  category
1  Cc1cc(C)cc(NC(=O)Cc2ccc(OC(C)(C)C(=O)NC(C)C(=O)O)cc2)c1 (centres unmarked) [Compound 22]  hemoglobin (Homo sapiens, UniProt P68871+P69905)   yes (1)
2  Cc1cc(C)cc(NC(=O)Cc2ccc(OC3(C(=O)N[C@@H](C)C(=O)O)CCCC3)cc2)c1  hemoglobin (Homo sapiens, UniProt P68871+P69905)    no (0)
3  Cc1cc(C)cc(NC(=O)Cc2ccc(OC(C)(C)C(=O)NC(CSCc3ccccc3)C(=O)O)cc2)c1 (centres unmarked)  hemoglobin (Homo sapiens, UniProt P68871+P69905)   yes (1)

Switching to the query record.
Exercise: Please check: Whole Blood Δp50 mm Hg for `Cc1cc(C)cc(NC(=O)Cc2ccc(OC3(C(=O)N[C@@H](CC(C)C)C(=O)O)CCCC3)cc2)c1` , strictly under 20 mm Hg or not?
Key: yes (1)
